Assay: recombinant UMI read abundance after kanamycin selection (control-corrected) (log10(CPM+1)); higher = more efficient recombination; extreme values may be limits of the assay; sequences stand for … in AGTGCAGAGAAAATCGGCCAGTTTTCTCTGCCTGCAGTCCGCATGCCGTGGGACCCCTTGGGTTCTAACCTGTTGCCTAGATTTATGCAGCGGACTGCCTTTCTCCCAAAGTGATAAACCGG…AGGTTGGTTTCACT; site = the 11-nt donor;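 further: IS621 bridge recombinase in Escherichia coli cells against a fixed T5 target plasmid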
Note that class boundaries on recombinant UMI read abundance (log10) are small value (below 0.005), mid value (0.005 to below 0.3), large value (0.3 or more)

[in] Class? Entry: ACTTTATCATGGACCGGTTTTCCCGGTAATCCGTATTTGCA (site ACTTTATCTTG)
[out] large value

[in] Class? Entry: CGGACTCCATGGACCGGTTTTCCCGGTAATCCGTATTTGTT (site CGGAGTCCTAA)
[out] small value

[in] Input CCGTTTGCATGGACCGGTTTTCCCGGTAATCCGTATTTGTG (site CCGTTAGCTCA) ; output its category
[out] mid value

[in] Please indicate the class for ATCCTAGCATGGACCGGTTTTCCCGGTAATCCGTATTTGAG (site ATCCGAGCTCT) based on its recombinant UMI read abundance (log10).
[out] mid value

[in] Record ATACGAACATGGACCGGTTTTCCCGGTAATCCGTATTTGTC (site AAACGAACTGA) — which class?
[out] small value

[in] Band for the recorded recombinant UMI read abundance (log10) of GTGAATGCATGGACCGGTTTTCCCGGTAATCCGTATTTGGT (site GTGTATGCTAC) ?
[out] large value

[in] Which class does GGCTGGCCATGGACCGGTTTTCCCGGTAATCCGTATTTGAT (site GGCTGGCCTAT) fall in?
[out] mid value

[in] # bin lookup: classify TAAGATGCATGGACCGGTTTTCCCGGTAATCCGTATTTGGG (site ATCCTCTCTGG) by its recombinant UMI read abundance (log10)
[out] small value

[in] # classify by recombinant UMI read abundance (log10) band: ACGAGTCCATGGACCGGTTTTCCCGGTAATCCGTATTTGGG (site ACGAGTCCTCC)
[out] mid value

[in] Into which bin does this sequence go? GAGGAAACATGGACCGGTTTTCCCGGTAATCCGTATTTGCT (site GAGGAAACTAG)
[out] small value

[in] Which class holds TAGCTGGCATGGACCGGTTTTCCCGGTAATCCGTATTTGAA (site TAGCTCGCTTT) ?
[out] mid value

[in] Bin? CAATCGACATGGACCGGTTTTCCCGGTAATCCGTATTTGGG (site CACTCGACTCC)
[out] large value

[in] Into which bin does this sequence go? TAGCTTTCATGGACCGGTTTTCCCGGTAATCCGTATTTGGT (site TAGCGTTCTAC)
[out] small value

[in] In plain terms, what class is TAAAGTGCATGGACCGGTTTTCCCGGTAATCCGTATTTGTA (site TAAAGTACTTA) ?
[out] large value

[in] Class label required: ACAATATCATGGACCGGTTTTCCCGGTAATCCGTATTTGCT (site ACAGTATCTTG)
[out] mid value
